Data origin: patent US20240301031A1

Molecular target: T1, human BAFF (10056-HNCH, Sino biological) (human, UniProt Q9Y275 134-285)
T1 construct: Bought protein
Test: competition ELISA: biotin-labeled BAFF to coated BAFF-R
result.type: IC50
# output: number + unit

*Q* Field request: IC50 | item: TACI-6 Fc (Fc fusion, two identical polypeptides) GGRSRVDQEERFPQGLWTGVAMRSCPEEQYWDPLLGTCMSCKTICNHQSQRTCAAFCRSLSCRKEQGKFYDHLLRDCISCASICGQHPKQCAYFCENKLRSPVNLPPELRKQRSGEVEDKTHTCPPCPAPEAEGAPSVFLFPPKPKDTLMISRTPEVTCVVVDVSHEDPEVKFNWYVDGVEVHNAKTKPREEQYNSTYRVVSVLTVLHQDWLNGKEYKCKVSNKALPSSIEKTISKAKGQPREPQVYTLPPSRDELTKNQVSLTCLVKGFYPSDIAVEWESNGQPENNYKTTPPVLDSDGSFFLYSKLTVDKSRWQQGNVFSCSVMHEALHNHYTQKSLSLSPGK
*A* 18.5 nM
